Listed below: % inhibition values for each entry.
- Test system: human PKK mRNA
- assay protocol: Antisense inhibition of human PKK mRNA in HepaRG cells, 3,000 nM (Example 1)
- Type: cell-based
- test conditions: Table 1; PKK mRNA, HepaRG cells, 3,000 nM, electroporation, ~24 h, relative to untreated control cells
Strand notation (5' to 3'): a small letter for the sugar, then the base; units joined by * are phosphorothioate-linked, units joined directly phosphodiester-linked; [ ] holds rarer units or linkages, { } end groups; capitals alone tell only the bases. e = 2'-O-(2-methoxyethyl) (MOE); [5mC] = 5-methylcytosine; d = 2'-deoxy (DNA)
value type: % inhibition (%)

530973 (antisense eG*eA*eG*eG*eA*dG*dT*dA*dG*dA*dG*dG*dA*dA*d[5mC]*eT*eT*eG*eG*eT) [compound 530973] : 52
530933 (antisense eT*eG*eG*eA*eG*dG*dT*dG*dA*dG*dT*d[5mC]*dT*d[5mC]*dT*eT*eG*eT*e[5mC]*eA) [compound 530933] : 76
530944 (antisense e[5mC]*eA*eG*eA*e[5mC]*dA*dT*d[5mC]*d[5mC]*dA*d[5mC]*dA*dG*dG*dA*eA*eA*e[5mC]*eT*eG) [compound 530944] : 0

====

- Test system: human PKK mRNA
- assay protocol: Antisense inhibition of human PKK mRNA in HepaRG cells, 1,000 nM, MOE/deoxy/cEt oligonucleotides (Example 3)
- Format: cell-based
- test conditions: PKK mRNA, HepaRG cells, 1,000 nM antisense oligonucleotide; Table 31
Strand notation (5' to 3'): a small letter for the sugar, then the base; units joined by * are phosphorothioate-linked, units joined directly phosphodiester-linked; [ ] holds rarer units or linkages, { } end groups; capitals alone tell only the bases. e = 2'-O-(2-methoxyethyl) (MOE); k = constrained ethyl (cEt); [5mC] = 5-methylcytosine; d = 2'-deoxy (DNA)
value type: % inhibition (%)

548646 (antisense e[5mC]*eG*kT*dT*dT*d[5mC]*d[5mC]*d[5mC]*dT*d[5mC]*dA*dA*d[5mC]*kT*k[5mC]*e[5mC]) [compound 548646] : 24
548613 (antisense eT*eG*kG*d[5mC]*dG*dG*dG*dA*dT*d[5mC]*dG*dG*dT*kG*kG*eT) [compound 548613] : 39
548628 (antisense eG*eT*kA*dT*dG*dG*d[5mC]*dA*dG*dA*dG*d[5mC]*d[5mC]*k[5mC]*k[5mC]*eT) [compound 548628] : 9
548658 (antisense eG*eA*kA*dG*dT*dT*d[5mC]*d[5mC]*dT*dG*dT*dG*dT*k[5mC]*kT*eT) [compound 548658] : 11
548631 (antisense e[5mC]*eT*k[5mC]*dA*d[5mC]*dA*dA*dT*dA*d[5mC]*dT*dG*dA*kG*k[5mC]*e[5mC]) [compound 548631] : 55
548635 (antisense eA*eG*kG*dT*dG*dT*dG*dG*d[5mC]*dG*d[5mC]*dG*d[5mC]*kG*k[5mC]*e[5mC]) [compound 548635] : 18
548620 (antisense eT*eG*kG*dT*dT*dG*dG*dT*dG*dG*d[5mC]*dG*dG*kG*kA*eT) [compound 548620] : 24
548647 (antisense e[5mC]*eA*k[5mC]*dG*dG*d[5mC]*dA*dA*dG*dT*d[5mC]*dG*d[5mC]*kG*kG*eG) [compound 548647] : 39
548617 (antisense eG*eA*kT*dT*dG*dG*dT*dG*dG*d[5mC]*dG*dG*dG*kA*kT*e[5mC]) [compound 548617] : 44
548622 (antisense eT*eT*kT*d[5mC]*dT*dA*dT*dG*dG*dG*d[5mC]*d[5mC]*dT*kG*kA*e[5mC]) [compound 548622] : 0
548648 (antisense e[5mC]*eA*kG*dT*dT*dG*dT*dA*dT*d[5mC]*d[5mC]*d[5mC]*dT*k[5mC]*k[5mC]*e[5mC]) [compound 548648] : 32
548657 (antisense eA*eG*k[5mC]*dA*dG*dG*dG*dT*dA*dT*d[5mC]*dT*dT*k[5mC]*kA*e[5mC]) [compound 548657] : 26
